This listing pairs compounds with measured growth inhibition.
- experiment_description: NCI Yeast Anticancer Drug Screen. Data for the mec2-1 strain (AID 157)
- applied_conditions: S. cerevisiae mec2-1 strain, at 50.0 µM, hits give high values
This is part of a sample that, as a whole, favours compounds with a hit. Of some 79,000 tested, about 15% had one in any assay. Active and inactive are the calls of the source. Cut-off read from the data, not from the text of the source: active = growth inhibition above about 70%; inactive = the rest.

Here are 6 compounds together with their reported answers.
[
  {
    "compound": "Nc1cccc(/C=C/c2ccc([N+](=O)[O-])cc2)c1",
    "growth inhibition": "24.6% (inactive)"
  },
  {
    "compound": "C(=NCCSSCCN=Cc1ccccc1)c1ccccc1",
    "growth inhibition": "10.3% (inactive)"
  },
  {
    "compound": "Cc1nc(-c2ccc([N+](=O)[O-])cc2)cn2c1nc1ccccc12",
    "growth inhibition": "-33% (inactive)"
  },
  {
    "compound": "CCCCCCCCCCCCCCCCNC(=O)C(C)O (configuration not stated)",
    "growth inhibition": "3.2% (inactive)"
  },
  {
    "compound": "CC(=O)N(C(C)=O)c1cc2c3ccccc3ccc2c2ccccc12",
    "growth inhibition": "-6.3% (inactive)"
  },
  {
    "compound": "CSCCOC(=O)C1C2CCC(O2)C1C(=O)O (configuration not stated)",
    "growth inhibition": "10.6% (inactive)"
  }
]

Prompt line: Reported growth inhibition, compound O=c1n(-c2ccccc2)c(=O)n2n1C1C=CC2C23C=CC12CCCC3 (configuration not stated) : ____
Response line: 7.85% (inactive)

Prompt line: Reported growth inhibition, compound S=c1nc[nH][nH]1 : ____
Response line: -3.7% (inactive)

Prompt line: Reported growth inhibition, compound CC(C)(C)C1=Cc2cc3cc(C(C)(C)C)[nH]c(=O)c3cc2S(=O)(=O)N1 : ____
Response line: -22.6% (inactive)

Prompt line: Reported growth inhibition, compound C1CCC2(CC1)SCCS2 : ____
Response line: -18.4% (inactive)

Prompt line: Reported growth inhibition, compound CCN(CC(=O)NC(=O)c1ccccc1)c1ccccc1 : ____
Response line: -14% (inactive)

Prompt line: Reported growth inhibition, compound O=C(OCCNC1CCCCC1)c1ccc([N+](=O)[O-])cc1 : ____
Response line: 2.5% (inactive)

* * *

This listing pairs compounds with measured growth inhibition.
- experiment_description: NCI Yeast Anticancer Drug Screen. Data for the sgs1 mgt1 strain (AID 161);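 note: 0% = growth of cultures given vehicle only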
- applied_conditions: S. cerevisiae sgs1 mgt1 strain, at 50.0 µM, hits give high values
The panel holds about 79,000 compounds, 15% with a hit somewhere; the sample as a whole holds those more often.
Write the number in % without appending the unit.

[
  {
    "compound": "CCOC=C(C(=O)OCC)C(=O)OCC",
    "obs_value": -6.5
  },
  {
    "compound": "Cc1cc(Br)cc(Cl)c1O",
    "obs_value": 6.55
  },
  {
    "compound": "CC(C)=NC(C(=O)O)C(C)(C)S (centres undefined)",
    "obs_value": -18.1
  },
  {
    "compound": "COC(=O)C[C@H](C)[C@H](C)CC(=O)O",
    "obs_value": -1.6
  },
  {
    "compound": "COc1cccc(/C=N/N(C)c2c([N+](=O)[O-])cc(C(F)(F)F)cc2[N+](=O)[O-])c1O",
    "obs_value": -16.6
  },
  {
    "compound": "Cc1cccc(C(C)(C)C)c1NC(=O)C(=O)C(C(=O)/C=C\\c1ccccc1)C1OC(=O)c2ccccc21 (centres undefined)",
    "obs_value": 12.3
  },
  {
    "compound": "COc1ccc2cc(C(C)C(=O)N3C(=O)OCC3(C)C)ccc2c1 (centres undefined)",
    "obs_value": 30.4
  },
  {
    "compound": "O=C(O)CCCCl",
    "obs_value": 16.2
  },
  {
    "compound": "CC1([C@H]2CC[C@H]3[C@@H]4CC[C@H]5OC(=O)CC[C@]5(C)[C@H]4CC[C@]23C)SCCS1",
    "obs_value": 12.5
  },
  {
    "compound": "O=C(O)C(Br)Cc1cccc([N+](=O)[O-])c1 (centres undefined)",
    "obs_value": 10.6
  }
]

Prompt line: Reported growth inhibition, compound O=C(OCCNC1CCCCC1)c1ccc([N+](=O)[O-])cc1 : ____
Response line: 1.45

Prompt line: Reported growth inhibition, compound CC(=O)N(c1ccccc1)c1ccccc1 : ____
Response line: 2.6

Entry source: PubChem BioAssay (NCI)
